- Tested on: HCC1569;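 also: TDF is a line of transformed human dermal fibroblasts of mesenchymal origin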
- assayMethodText: H1.0 immunofluorescence intensity relative to DMSO (% of DMSO); higher = stronger H1.0 induction, active = 140 or more
- studyConditions: concentration: 10 µM; 24 h

{"columns": ["compound", "H1.0 immunofluorescence intensity"],
 "data": [
  ["CCCCCC=CCC=CCCCCCCCCCCC(=O)O [12(Z), 15(Z)-Heneicosadienoic acid]", 105],
  ["COc1ccc2c(c1)c(C1=C(c3c[nH]c4ccccc34)C(=O)NC1=O)cn2CCCN(C)C", 174],
  ["CN1CCCC1c1cccnc1.O=C(O)C(O)C(O)C(=O)O.O=C(O)C(O)C(O)C(=O)O (single isomer, unassigned; (-)) [(-)-Nicotine hydrogen tartrate salt]", 99.2],
  ["COc1cccc(-c2cn(-c3ccc(CCN4CCC(O)CC4)cc3)c3ncnc(N)c23)c1", 177],
  ["COc1ccc(-c2cc(=O)c3c(O)cc(O)cc3o2)cc1O", 114],
  ["NC(N)=Nc1nc(CSCCC(N)=NS(N)(=O)=O)cs1 [Famotidine]", 89.7],
  ["CC(C)n1cnc2c(NCc3ccccc3)nc(NCCO)nc21", 314],
  ["NC(=NCc1ccccc1)NC(=O)c1nc(Cl)c(N)nc1N", 112],
  ["Cc1coc2c1C(=O)C(=O)c1c-2ccc2c1CCCC2(C)C", 114],
  ["Cl.O=c1cc(N2CCOCC2)oc2c(-c3ccccc3)cccc12 [LY-294,002 hydrochloride]", 131],
  ["Cc1nccn1CC1CCc2c(c3ccccc3n2C)C1=O (stereo unspecified)", 118],
  ["CCCCCCCCCCCC=CCCCCC(=O)O [6(Z)-Octadecenoic acid]", 97.5],
  ["NC(N)=NC(=O)c1nc(Cl)c(N)nc1N [Amiloride]", 102],
  ["COc1cc2c3cc1Oc1cc(ccc1O)CC1c4c(cc(OC)c(O)c4Oc4ccc(cc4)CC3N(C)CC2)CC[N+]1(C)C (single isomer, unassigned; (+)) [(+)-Tubocurarine chloride]", 89.2],
  ["COc1c(O)c2c(=O)cc(OC)c3c4c(OC)cc(=O)c5c(O)c(OC)c6c(c(c1CC(C)(O)C6C(C)=O)c23)c54 (stereo unspecified)", 108],
  ["Cc1ccc2c(c1)C(N1CCN(C)CC1)=Nc1cccnc1N2", 99]
]}

###

// reported cell number per item
- Test system: TDF;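 also: TDF denotes transformed human dermal fibroblasts of mesenchymal origin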
- assayMethodText: cell number relative to DMSO (% of DMSO); higher = more cells (less growth inhibition / toxicity)
- studyConditions: concentration: 10 µM; 24 h

{"columns": ["compound", "cell number"],
 "data": [
  ["CCCCCCCCCCCCCCCC(=O)OCC(COP(=O)(O)O)OC(=O)CCCCCCCCCCCCCCC (stereo not drawn) [Dipalmitoylphosphatidic acid]", 107],
  ["CC(NC(=O)CCc1nc(=O)c2ccccc2[nH]1)c1ccccc1 (stereo not drawn)", 111],
  ["O=C(O)CCCc1c[nH]c2ccccc12 [Indole-3-butyric acid]", 99],
  ["Cc1ccc(-c2ncc(Cl)cc2-c2ccc(S(C)(=O)=O)cc2)cn1 [Etoricoxib]", 97.1],
  ["O=C1CN(N=Cc2ccc(-c3ccc([N+](=O)[O-])cc3)o2)C(=O)[N-]1.[Na+] [Dantrolene sodium]", 97],
  ["CC1=C(C(=O)O)N2C(=O)C(NC(=O)C(N)C3=CCC=CC3)C2SC1 (stereo not drawn) [Cephadrine]", 101],
  ["COc1ccc(C(=O)NCc2cccnc2)cc1C(=O)NCc1cccnc1 [Picotamide]", 103],
  ["OCc1cc(C(O)CNCCCCCCOCCCCc2ccccc2)ccc1O (stereo not drawn) [Salmeterol]", 100],
  ["C=C1C(=O)C23C(O)C1CCC2C12COC3(O)C(O)C1C(C)(C)CCC2O (stereo not drawn) [Oridonin]", 110],
  ["CC1(C)CCCC(C)(C2CCC3(C)C2C(O)CC2C4(C)CCC(O)C(C)(C)C4CCC23C)O1 (stereo not drawn) [Panaxadiol]", 103],
  ["CC(C)Cc1ccc(C(C)C(=O)NO)cc1 (stereo not drawn) [Ibuproxam]", 101],
  ["COc1ccc(Cl)cc1NC(=O)Nc1cc(C)nc2ccccc12 [IGF-1R Inhibitor II]", 97.7],
  ["CCCCCC=CCC=CCC=CC=CC1CCCC(=O)O1 (racemic)", 97],
  ["Cl.NC12CC3CC(CC(C3)C1)C2 [Amantadine hydrochloride]", 109],
  ["COc1ccc(C2(C#N)CCC(C(=O)O)CC2)cc1OC1CCCC1 (stereo not drawn)", 99.6],
  ["CCN1CCN(C(=O)NC(C(=O)NC2C(=O)N3C2SC(C)(C)C3C(=O)O)c2ccccc2)C(=O)C1=O (stereo not drawn) [Piperacillin]", 100],
  ["Oc1cc(O)cc(C=Cc2ccc(O)c(O)c2)c1 [Piceatannol]", 93.7],
  ["COc1cc(C=CC(=O)CC(=O)C=Cc2ccc(O)c(OC)c2)ccc1O [Curcumin]", 62.7],
  ["CCC1OC(=O)C(C)C(OC2CC(C)(OC)C(O)C(C)O2)C(C)C(OC2OC(C)CC(N(C)C)C2O)C(C)(O)CC(C)C(=NOCOCCOC)C(C)C(O)C1(C)O (stereo not drawn) [Roxithromycin]", 98.4],
  ["CCC(Sc1nnc2c(n1)[nH]c1ccccc12)C(=O)N1c2ccccc2Sc2ccccc21 (stereo not drawn)", 96.3],
  ["O=C(O)c1cc(=O)cc(C(=O)O)[nH]1 [Chelidamic acid]", 109],
  ["O=c1c(-c2ccc(O)cc2)coc2cc(O)cc(O)c12 [Genistein]", 99],
  ["CN=C(NC#N)NCCSCc1csc(N=C(N)N)n1 [Tiotidine]", 88.1],
  ["CCCCCC=CCC=CCC=CCC=CCCCC(=O)OC(CO)COC(=O)CCCCCCCCCCCCCCCCC (stereo not drawn) [1-Stearoyl-2-arachidonoyl-glycerol]", 104],
  ["Oc1cc2c(cc1O)C(c1ccccc1)CNCC2 (racemic)", 113],
  ["CC(C)(C)NCC(O)c1ccc(O)c(CO)c1 (stereo not drawn) [Salbutamol]", 99.3],
  ["CC(=O)Nc1ccc(NC(=S)NC(=O)c2ccc(C(C)(C)C)cc2)cc1 [p53 Activator (Tenovin-1)]", 91.1],
  ["CN(C)c1ccc(O)c2c1CC1CC3C(N(C)C)C(=O)C(C(N)=O)=C(O)C3(O)C(=O)C1=C2O (stereo not drawn) [Minocycline]", 101],
  ["CCN(CC)CCCC(C)Nc1c2ccc(Cl)cc2nc2ccc(OC)cc12.Cl.Cl (stereo not drawn) [Quinacrine dihydrochloride]", 4.99],
  ["CCOc1cc2ncnc(Nc3cccc(Br)c3)c2cc1OCC [Compound 56]", 94],
  ["CC1(C(=O)O)CCC2(C)CCC3(C)C(=CC(=O)C4C5(C)CCC(O)C(C)(C)C5CCC43C)C2C1 (stereo not drawn)", 108],
  ["CC1OC(OC2C(O)CC(OC3C(O)CC(OC4CCC5(C)C(CCC6C5CCC5(C)C(C7=CC(=O)OC7)CCC65O)C4)OC3C)OC2C)CC(O)C1O (stereo not drawn) [Digitoxin]", 48.4],
  ["CN(C)CCOC(C)(c1ccccc1)c1ccccn1.O=C(O)CCC(=O)O (stereo not drawn) [Doxylamine succinate]", 101]
]}

###

- Test system: HCC1569;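 also: TDF is a line of transformed human dermal fibroblasts of mesenchymal origin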
- assayMethodText: H1.0 immunofluorescence intensity relative to DMSO (% of DMSO); higher = stronger H1.0 induction, active = 140 or more
- studyConditions: concentration: 10 µM; 24 h
Entries and their measured H1.0 immunofluorescence intensity follow.
readoutKind: H1.0 immunofluorescence intensity

{"columns": ["compound", "readoutKind", "recordedNumber"],
 "data": [
  ["Nc1nc(N)c2nc(CNc3ccc(C(=O)NC(CCC(=O)O)C(=O)O)cc3)cnc2n1 (stereo not given) [Aminopterin]", "H1.0 immunofluorescence intensity", 75.9],
  ["O=C(O)CO.[NH2-].[NH2-].[Pt+2] [Nedaplatin]", "H1.0 immunofluorescence intensity", 104],
  ["COc1ccc2cc(C(C)C(=O)O)ccc2c1 (stereo not given) [Naproxen]", "H1.0 immunofluorescence intensity", 109],
  ["C=CC1CN2CCC1CC2C(O)c1ccnc2ccc(OC)cc12.Cl.O.O (stereo not given)", "H1.0 immunofluorescence intensity", 92.6],
  ["N#CC(=C1Nc2ccccc2S1)c1ccnc(NCCc2cccnc2)n1 [JNK Inhibitor V]", "H1.0 immunofluorescence intensity", 123],
  ["CC1(C2CCCC2)Cc2cc(OCC(=O)O)c(Cl)c(Cl)c2C1=O (stereo not given)", "H1.0 immunofluorescence intensity", 84.5],
  ["N#CC(=C(N)Sc1ccc(N)cc1)c1ccccc1C(F)(F)F", "H1.0 immunofluorescence intensity", 126],
  ["O=C1C(=O)C(c2ccc(O)c(O)c2)Oc2cc(O)cc(O)c21 (stereo not given) [2-(3,4-dihydroxyphenyl)-3,5,7-trihydroxy-4H-chromen-4-one]", "H1.0 immunofluorescence intensity", 158],
  ["NC(C(=O)O)C(O)C(=O)O (racemic) [DL-threo-beta-hydroxyaspartic acid]", "H1.0 immunofluorescence intensity", 95.9],
  ["O=C1CN(/N=C/c2ccc(-c3ccc([N+](=O)[O-])cc3)o2)C([O-])=N1.[Na+]", "H1.0 immunofluorescence intensity", 111],
  ["Cl.Fc1ccc(C(OCCCc2cnc[nH]2)c2ccc(F)cc2)cc1", "H1.0 immunofluorescence intensity", 99.8],
  ["CCCCOc1cc(CC2CNC(=O)N2)ccc1OC (stereo not given)", "H1.0 immunofluorescence intensity", 86.2],
  ["C[n+]1ccccc1CC(=O)c1ccc(Br)cc1.[I-] [2-[2-(4-bromophenyl)-2-oxoethyl]-1-methylpyridinium iodide]", "H1.0 immunofluorescence intensity", 97.5],
  ["C#CCCCCCCCCCCCCCCCC(=O)O [17-Octadecynoic acid]", "H1.0 immunofluorescence intensity", 99.4],
  ["Cc1c(-c2cnccn2)ssc1=S [Oltipraz]", "H1.0 immunofluorescence intensity", 114],
  ["O=C(O)Cc1sc(-c2ccccc2)nc1-c1ccc(Cl)cc1 [Fentiazac]", "H1.0 immunofluorescence intensity", 116],
  ["CC(C)CN(C)c1nc(N)c(C(=O)N=C(N)N)nc1Cl [5-(N-Methyl-N-isobutyl)amiloride]", "H1.0 immunofluorescence intensity", 101],
  ["O.Oc1cc(O)c2c(c1)OC(c1ccc(O)c(O)c1)C(O)C2 (single isomer, unassigned; (+)) [(+)-Catechin Hydrate]", "H1.0 immunofluorescence intensity", 91.7],
  ["CC(C)NCC(O)COc1ccc(CCOCC2CC2)cc1.Cl (stereo not given) [Betaxolol hydrochloride]", "H1.0 immunofluorescence intensity", 89.4],
  ["CC1=NC(=NNc2ccc(C(=O)[O-])cc2)C(COP(=O)([O-])[O-])=C(C=O)C1=O.[Na+].[Na+].[Na+]", "H1.0 immunofluorescence intensity", 103],
  ["CC(=O)OCC1(O)CC23CCC4c5ccoc5CCC4(C)C2CCC1C3 (stereo not given) [Cafestol acetate]", "H1.0 immunofluorescence intensity", 98.4],
  ["Cc1nc(N)sc1-c1ccnc(Nc2ccc(N3CCOCC3)cc2)n1", "H1.0 immunofluorescence intensity", 99.1],
  ["CC(C)(CN1C(=O)C(Cl)=C(Cl)C1=O)CN1C(=O)C(Cl)=C(Cl)C1=O", "H1.0 immunofluorescence intensity", 124],
  ["Cc1ccc(OCCSc2ncccn2)c(Br)c1 [2-{[2-(2-bromo-4-methylphenoxy)ethyl]sulfanyl}pyrimidine]", "H1.0 immunofluorescence intensity", 107],
  ["C=Cc1c(C)c2cc3[nH]c(cc4nc(cc5nc(cc1[nH]2)C(C)=C5CCC(=O)O)C(CCC(=O)O)=C4C)c(C)c3C=C [Protoporphyrin IX disodium]", "H1.0 immunofluorescence intensity", 100],
  ["CCc1nn(CCCN2CCN(c3cccc(Cl)c3)CC2)c(=O)n1CCOc1ccccc1", "H1.0 immunofluorescence intensity", 122],
  ["O=C(O)c1cn(C2CC2)c2cc(N3C[C@@H]4C[C@H]3CN4)c(F)cc2c1=O", "H1.0 immunofluorescence intensity", 102],
  ["CC(C)CNCc1ccc(-c2ccccc2S(=O)(=O)N2CCCC2)cc1.Cl", "H1.0 immunofluorescence intensity", 100],
  ["CSCC[C@@H](C=O)NC(=O)[C@H](CC(C)C)NC(=O)[C@H](CC(C)C)NC(C)=O", "H1.0 immunofluorescence intensity", 92.2],
  ["CCCCCCCCCCCCCC=CC(O)C(N)CO (stereo not given) [Sphingosine]", "H1.0 immunofluorescence intensity", 98.4],
  ["O=C(c1ccc(F)cc1)C1CCN(CCn2c(=O)[nH]c3ccccc3c2=O)CC1 [Ketanserin]", "H1.0 immunofluorescence intensity", 117],
  ["CC(C)(C)NCC(O)c1ccc(O)c(CO)c1.CC(C)(C)NCC(O)c1ccc(O)c(CO)c1.O=S(=O)(O)O (stereo not given) [Salbutamol hemisulfate]", "H1.0 immunofluorescence intensity", 106],
  ["COc1cc(-c2ccc(=O)[nH]n2)ccc1OC(F)F [Zardaverine]", "H1.0 immunofluorescence intensity", 110],
  ["O=C(Nc1ccc(Cl)cc1)Nc1cccc(-c2cccc(N3CCCC3)n2)c1", "H1.0 immunofluorescence intensity", 114],
  ["O=c1onc2n1-c1cc(Br)ccc1OC2", "H1.0 immunofluorescence intensity", 96]
]}
